- Tested on: Salmonella typhimurium TA98
- test_method_notes: Ames test (reverse mutation test), TA98
- Format: cell-based
- measurement_parameters: S9 Mix -; dose 5000 µg/plate
- Experimental: The solvent used herein was dimethyl sulfoxide (DMSO, 100 µL/plate). The mixtures were preincubated at 37° C. for 20 minutes while shaking. […] Two plates per treatment were used.
measure_name: Number of revertant colonies TA98
Answer with the value's number alone.

Example entries and their recorded answers appear below.
>>> print(df.to_string())
                                   compound                       target                       measure_name  recorded_result
0  Cc1ccc(-n2nc(N)cc2-c2cccc(OCC(F)(F)F)c2)cc1 [Metabolite F]  Salmonella typhimurium TA98  Number of revertant colonies TA98                0
1  Cc1cccc(-n2nc(N)cc2-c2cccc(OC(F)(F)F)c2)c1 [Metabolite H]  Salmonella typhimurium TA98  Number of revertant colonies TA98                3
2  Nc1cc(-c2cccc(OCC(F)(F)F)c2)n(-c2ccc(F)cc2)n1 [Metabolite E]  Salmonella typhimurium TA98  Number of revertant colonies TA98                2
3  Nc1cc(-c2cccc(OC(F)(F)F)c2)n(-c2cccc(F)c2)n1 [Metabolite G]  Salmonella typhimurium TA98  Number of revertant colonies TA98                0

Now let's try a different one.
Consider the compound CC(C)(OCc1cc(F)cc(-c2cc(N)nn2-c2ccc(F)cc2)c1)C(F)(F)F [Metabolite D] and give its recorded Number of revertant colonies TA98. 21

----------
- System: Salmonella typhimurium TA98
- test_method_notes: Ames test (reverse mutation test), TA98
- Assay type: cell-based
- measurement_parameters: S9 Mix -; dose 556 µg/plate
measure_name: Number of revertant colonies TA98

Look over these answered cases.
In [3]: df
Out[3]:
                                   molecule                       target                       measure_name  recorded_result
0  CC(C)(OCc1cc(F)cc(-c2cc(N)nn2-c2ccc(F)cc2)c1)C(F)(F)F [Metabolite D]  Salmonella typhimurium TA98  Number of revertant colonies TA98               21
1  Cc1cccc(-n2nc(N)cc2-c2cccc(OC(F)(F)F)c2)c1 [Metabolite H]  Salmonella typhimurium TA98  Number of revertant colonies TA98               20
2  Nc1cc(-c2cccc(OC(F)(F)F)c2)n(-c2cccc(F)c2)n1 [Metabolite G]  Salmonella typhimurium TA98  Number of revertant colonies TA98               15
3  Nc1cc(-c2cccc(OCC(F)(F)F)c2)n(-c2ccc(F)cc2)n1 [Metabolite E]  Salmonella typhimurium TA98  Number of revertant colonies TA98               12

Find Number of revertant colonies TA98 for Cc1ccc(-n2nc(N)cc2-c2cccc(OCC(F)(F)F)c2)cc1 [Metabolite F] on Salmonella typhimurium TA98 and write it down. 19

----------
- System: Salmonella typhimurium TA1535
- test_method_notes: Ames test (reverse mutation test), TA1535
- Type: cell-based
- measurement_parameters: S9 Mix -; dose 1667 µg/plate
measure_name: Number of revertant colonies TA1535
Write no unit; give the number alone.

Study these solved cases before continuing.
                                   compound                         target                         measure_name  recorded_result
0  Nc1cc(-c2cccc(OC(F)(F)F)c2)n(-c2cccc(F)c2)n1 [Metabolite G]  Salmonella typhimurium TA1535  Number of revertant colonies TA1535                0
1  Cc1ccc(-n2nc(N)cc2-c2cccc(OCC(F)(F)F)c2)cc1 [Metabolite F]  Salmonella typhimurium TA1535  Number of revertant colonies TA1535                0

Identify the reported Number of revertant colonies TA1535 for the following entry. Nc1cc(-c2cccc(OCC(F)(F)F)c2)n(-c2ccc(F)cc2)n1 [Metabolite E] 0

Name the recorded Number of revertant colonies TA1535 of the item Cc1cccc(-n2nc(N)cc2-c2cccc(OC(F)(F)F)c2)c1 [Metabolite H] in your answer. 6

Hello, please tell me recorded Number of revertant colonies TA1535 for this one: CC(C)(OCc1cc(F)cc(-c2cc(N)nn2-c2ccc(F)cc2)c1)C(F)(F)F [Metabolite D] 6

----------
Number of revertant colonies TA98: recorded values
- Test system: Salmonella typhimurium TA98
- test_method_notes: Ames test (reverse mutation test), TA98
- Format: cell-based
- measurement_parameters: S9 Mix -; dose 62 µg/plate
- Experimental: The solvent used herein was dimethyl sulfoxide (DMSO, 100 µL/plate). The mixtures were preincubated at 37° C. for 20 minutes while shaking. […] Two plates per treatment were used.
Please give the numeric answer without any surrounding text.

In [3]: df
Out[3]:
                                   compound  recorded_result
0  Cc1cccc(-n2nc(N)cc2-c2cccc(OC(F)(F)F)c2)c1 [Metabolite H]               20

Write down Number of revertant colonies TA98 measured for item Cc1ccc(-n2nc(N)cc2-c2cccc(OCC(F)(F)F)c2)cc1 [Metabolite F] 21

Identify Number of revertant colonies TA98 associated with the compound Nc1cc(-c2cccc(OCC(F)(F)F)c2)n(-c2ccc(F)cc2)n1 [Metabolite E] 32

Tell me measured Number of revertant colonies TA98 for Nc1cc(-c2cccc(OC(F)(F)F)c2)n(-c2cccc(F)c2)n1 [Metabolite G] please. 30

Specify reported Number of revertant colonies TA98 for the compound shown: CC(C)(OCc1cc(F)cc(-c2cc(N)nn2-c2ccc(F)cc2)c1)C(F)(F)F [Metabolite D] 25

----------
- Tested on: Salmonella typhimurium TA100
- test_method_notes: Ames test (reverse mutation test), TA100
- Format: cell-based
- measurement_parameters: S9 Mix -; dose 5000 µg/plate
Quick reference: Number of revertant colonies TA100 of the listed items.
Simply state the number, no unit and no words.

>>> print(df.to_string())
                                   compound                        measure_name  recorded_result
0  CC(C)(OCc1cc(F)cc(-c2cc(N)nn2-c2ccc(F)cc2)c1)C(F)(F)F [Metabolite D]  Number of revertant colonies TA100               82
1  Nc1cc(-c2cccc(OCC(F)(F)F)c2)n(-c2ccc(F)cc2)n1 [Metabolite E]  Number of revertant colonies TA100                0
2  Nc1cc(-c2cccc(OC(F)(F)F)c2)n(-c2cccc(F)c2)n1 [Metabolite G]  Number of revertant colonies TA100               47

Would you please give the reported Number of revertant colonies TA100 of Cc1ccc(-n2nc(N)cc2-c2cccc(OCC(F)(F)F)c2)cc1 [Metabolite F] with Salmonella typhimurium TA100? 40

Fill in: Number of revertant colonies TA100 on Salmonella typhimurium TA100, entry Cc1cccc(-n2nc(N)cc2-c2cccc(OC(F)(F)F)c2)c1 [Metabolite H] 55

----------
- System: Escherichia coli WP2uvrA
- test_method_notes: Ames test (reverse mutation test), WP2uvrA
- Type: cell-based
- measurement_parameters: S9 Mix -; dose 21 µg/plate
measure_name: Number of revertant colonies WP2uvrA
API doc: respond with a numeric literal and nothing else, no unit.

>>> print(df.to_string())
                                   molecule                    target  recorded_result
0  Cc1cccc(-n2nc(N)cc2-c2cccc(OC(F)(F)F)c2)c1 [Metabolite H]  Escherichia coli WP2uvrA               18
1  Nc1cc(-c2cccc(OC(F)(F)F)c2)n(-c2cccc(F)c2)n1 [Metabolite G]  Escherichia coli WP2uvrA               16

Give the value of Number of revertant colonies WP2uvrA reported for the following: Nc1cc(-c2cccc(OCC(F)(F)F)c2)n(-c2ccc(F)cc2)n1 [Metabolite E] 24

Provide only the value of recorded Number of revertant colonies WP2uvrA for Cc1ccc(-n2nc(N)cc2-c2cccc(OCC(F)(F)F)c2)cc1 [Metabolite F] 26

Respond only with Number of revertant colonies WP2uvrA recorded for CC(C)(OCc1cc(F)cc(-c2cc(N)nn2-c2ccc(F)cc2)c1)C(F)(F)F [Metabolite D] 22

----------
# Number of revertant colonies TA1537 listing for each entry below
- System: Salmonella typhimurium TA1537
- test_method_notes: Ames test (reverse mutation test), TA1537
- Type: cell-based
- measurement_parameters: S9 Mix +; dose 62 µg/plate
Number only, please.

In the examples that follow, each entry is paired with its recorded Number of revertant colonies TA1537.
>>> df
                                   molecule  recorded_result
0  Nc1cc(-c2cccc(OC(F)(F)F)c2)n(-c2cccc(F)c2)n1 [Metabolite G]               15
1  Cc1ccc(-n2nc(N)cc2-c2cccc(OCC(F)(F)F)c2)cc1 [Metabolite F]              227
2  Cc1cccc(-n2nc(N)cc2-c2cccc(OC(F)(F)F)c2)c1 [Metabolite H]               35

Below: the item to evaluate.
Give measured Number of revertant colonies TA1537 for Nc1cc(-c2cccc(OCC(F)(F)F)c2)n(-c2ccc(F)cc2)n1 [Metabolite E] (Salmonella typhimurium TA1537). 102
